test: yeast display, Sf9 membrane polyspecificity reagent, FACS + sequencing; frameworks hold sequencing errors
Measurement Type: polyreactivity (PSR sort gate)

Consider the following illustrative entries.
Entry Sequence	Measurement Type	Assay Value
QVQLVESGGCLVQAGGSLRLSCAASGFTFQKYAMGWYRQAPGKERELVAAISWSGSSTYYADSVKGRFTISRDNAKNTVYLQMNSLKPEDTAFYYCAADSYYIQERDYWGQGTQVTVSS	polyreactivity (PSR sort gate)	high polyreactivity
QVQLVESGGGLVQAGGSLRLSCAASGFTFRSYAMGWYRQAPGKERELVAGITWRGGRTYYADSVKGRFTISRDNAKNTVYLQMNSLKPEDTAVYYCAVRNASKNRKYYYWGQGTQVTVSS	polyreactivity (PSR sort gate)	high polyreactivity
QVQLVESGGGLVQAGGSLRLSCAASGFIFRHYTMGWYRQAPGKERELVAAISSGGSTYYADSVKGRFTISRDNEKNTVYLQMNSLKPEDTAVYYCAARSRIYGLLFYYWGLGTQVTVSS	polyreactivity (PSR sort gate)	high polyreactivity
QVQLVESGGGLVQAGGSLRLSCAASGSIFGTYAMGWYRQAPGKERELVAAITGNGGRTYYADSVKGRFTISRDNAKNTVYLQMNSLKPEDTAVYYCAKATSRRGFYYWGQGTQVTVSS	polyreactivity (PSR sort gate)	high polyreactivity
QVQLVESGGGLVQAGGSLRLSCAASGYTFQHYGMGWYRQAPGKERELVAAITRRGSGTYYADSVKGRFTISRDNAKNTVYLQMNRLKPEDTAVYYCAAAVGHGVDYWGQGTQVTVSS	polyreactivity (PSR sort gate)	high polyreactivity

Count: 6. Required value per item: polyreactivity (PSR sort gate).
1. QVQLVESGGGLVQAGGSLRLSCAASGRTSRYYAMGWYRQAPGKERELVAGISWSGGNTYYADSVKGRFTISRDNAKNTVYLQMNSLKPEDTAVYYCNARIGWSPSRYGYWGQGTQVTVSS
2. QVQLVESGGGLVQAGGSLRLSCAASGIIFQSYTMGWYRQPPGKERELVAAIDSGGSTYYADSVKGRFTISRDNAKNTVYLQMNSLKPEDTAVYYCATDYPLSWSPLYDYDYWGQGTQVTVSS
3. QVQLVESGGGLVQAGGSLRLSFAASGGTLDVYAMGWYRQAPGKEREFVAAISWSGGRTYYADSVKGRFTISRDNAKNTVYLQMISLKPEDTAVFFCATDLYISIRYGGYYWGQGTQVTVSS
4. QVQLVESGGGLVQAGGSLRLSCAASGSTFPVYDMGWYRQAPGKERELVAAITAGVSTNYADSVKGRFTISRDNAKNTVYLQMNSQKPEDTAVYYCAKDFGLLPIRDDYWGQGTQETVSS
5. QVQLVESGGGLVQAGGSLRISCAASGSTFLINAMGWYRQAPGKERELVAAIRYSGGRTYYADSVKGRFTISRDNAKNTVYLQMNSLKPEDTAVYYCNARPYRSQIGVHYDYWGQGTQVTVSS
6. QVQLVESGGGLVQAGGSLRLSCAASGRNFYYYTMGWYRQAPGKERALVASISQSGARTYYADSVKGRFTISRDNSKNTVYLQMNSLKPVYTAVYYCNAVGTGGYHYWGQGTQVTVSS

Reply |
["high polyreactivity", "low polyreactivity", "high polyreactivity", "low polyreactivity", "high polyreactivity", "high polyreactivity"]

====

assay: yeast display, Sf9 membrane polyspecificity reagent, FACS + sequencing; frameworks hold sequencing errors
Measurement Type: polyreactivity (PSR sort gate)

Take a look at these entries with their results.
Entry Sequence	Assay Value
QVQLVESGGGLDQAGGSLRLIFAASGRTFYRYAMGLYRQAPGKERELVAAISVRGGSTYYADSVKGRFTISRDNAKNTVYLQMNSLKPEDTAVYYCDAEYVAPWYIGLEVTRLIYWGQGTQVTVSS	high polyreactivity
QVQLVESGGGLVQAGGSLRLSCAASGSIFDPYAMGWYRQAPGKERELVAAITASGSSTYYADSVKGRFTISRDNAKNTVYLQMNSLIPEDTAVYYCAADRANWEYLLSCLGYDYWGQGTQVTVSS	low polyreactivity
QVQIVESGGGLVQAGGSLRLSCAASGSTFGSNAMGWYRQAPGKERELGAAISWTGGSTYYADSVKGRFTISRDNAKNTVYLQLNSLKPEDTAVYYCNKRIAESDTTVTYDYWGQGTQVNVSS	low polyreactivity
QVQLVESGGGLVQAGGSLRISCAASGFTFALYAMGWYRQAPGKERELVAAITRRGGSTYYADSVKGRFTISRDNAKNTVYLQMNSLKPEDTAVYNCAKRERAIKVSRYDSHDYWGQGTQVTVSS	high polyreactivity

Read the next record carefully.
Ask | Tell me the measured polyreactivity (PSR sort gate) of QVQLVESGGGLVQAGGSLRLSCAASGSIFWYYDMGWYRQAPGKERELVATISRTGRTYYADSVKGRFTISRDNAKNTVYLQMNSLKPEDTAVYYCAAVPRGWFSYPSGYDYWGQGTQVTVSS , please.
Reply | high polyreactivity

====

test: yeast display, Sf9 membrane polyspecificity reagent, FACS + sequencing; frameworks hold sequencing errors
Measurement Type: polyreactivity (PSR sort gate)

Entry Sequence	polyreactivity (PSR sort gate)
QVQLVESGGGLVQAGGSLRLSCAASGNTFNPNAMGWYRQAPGKERELVAVIRFRGGSTYYADSVKGRFTISRDNAKNTVYLQMNSLKTEDTAVYDCAADFLYYYLRYYYWGQGTQVTVSS	high polyreactivity
QVQLVESGGGLVQAGGSLRLSCAASGSTFYYYTMGWYRQAPGKERELVAISWDGDSTYYADSVKGRFTISRDNAKNTVYLQMNSLKPEDTAVYYCAAADYYLPDDVSDYVDANFDYWGQGTQVTVSS	low polyreactivity
QVQLVESGGGLVQAGGSLRLSCAASGSIFGFNTMGWYRQAPGKERELVATINWSGGSTYYADSVKGRFTISRDNAKNTVYLQMNSLKPEDTAVYYCNAGPFSGRLFTTYASRGRYDYWGQGTQVTVSS	low polyreactivity
QVQLVESGGGLVQAGGSLRLSCAASGSTFGSYAMGWYRQAPGKVRELVASIRSSGTSTYYADSVKGRFTISRDNAKNTVYLQMNSLKPEDTAVYYCAKRYFTWRSTYNYWGQGTQVTVSS	high polyreactivity

Now for the sequence whose polyreactivity (PSR sort gate) we want.
Ask | For the sequence QVQLVESGGGLVQAGGSLRLSCAASGLNFDKNAMGWYRQAPGNERELLAAITRSSGTTYYADSVKGRFTISRDNAKNTVYLQMNSLKPEDTAVYYCAARFIWGYWGVGYYSWGQGTQVTVSS , what polyreactivity (PSR sort gate) is on record?
Reply | low polyreactivity

====

test: yeast display, Sf9 membrane polyspecificity reagent, FACS + sequencing; frameworks hold sequencing errors
Measurement Type: polyreactivity (PSR sort gate)

Entry Sequence	polyreactivity (PSR sort gate)
QVQLVESGGGLVQAGGSLRLSCAASGRTLRTYGMGWYRQAPGKERELVARITIGGRTYYADSVKGRFTISRDNAKNTVYLQMNSLKPEDTAVYYCAARYAGGTSRILYGYWGQGTQVTVSS	high polyreactivity
QVQLVESGGGLVQAGGSLRLSCAASGRTFLRNAMGWYRPAPGKERELVAAITSSGGRTYYADSVKGRFTISRDNAKNTVYLQMNSLKPEDTAVYYCATDTGWPGRDYWGQGPQVTVSS	high polyreactivity
QVQLVESGGGLVQAGGSLRLSCAASGIIFDTYAMGWYRQAPGKERELVAAISRSGDTTYYADSVKGRFTISRDNAKNTVYLQMNSLKPEDTAVYYCNRGNRWNFDSWGQGTQVTVSS	high polyreactivity
QVQLVESGGGLVQAGGSLRLSCAASGYTFNNYAMGWYRQAPGKERELVAAISSSGGSTYYADSVKGRFTISRDNAKNTRYFQMNSLKPEDTAVYYGDGRPFGHGDYRGYYYWGQGTQVTVSS	low polyreactivity

Please give polyreactivity (PSR sort gate) for each item listed below.
1. QGQLVESCGCLVQAGGSLRLSCAASGSTFVVYDMGWYRQAPGKERELVAAITWSGGSTYYADSVKGRFTISRDNAKNTVYLQMNSLKPEDTAVYYCNKVTWHQGHDYWGQGTQVTVSS
2. QVQLVESGGGLFQAGVSLRLSCAASGSTFDYYAMGWYRQPPAKERELVAAIRYRGGRTYYADSVKWRFTISRDNAKNTVYLQLNSLKPEDTAVYYCAALTIQSSKTYDYWGQGTQVTVSS
3. QVQLVESGGGLVQAGGSLRLSCAASGYTFTRNAMGWYRQAPGKERELVATISGSGGGTYYADSVKGRFTISRDNAKNTVYLQMNSLKPEDTAVNYCNARRWFYWQGTARYDYWGQGTQVTVSS

Reply |
1. low polyreactivity
2. low polyreactivity
3. low polyreactivity

The following sequences each have a reported value; give each one's polyreactivity (PSR sort gate).
1. QDQLVESGGGLVQAGGSLRLSCAASGRTFSYNAMGWYRQAPRKERELVAAISYDGGRTYYADSVKGRFTISRDNAKNTFYLQMNSLKPEDTAVYYCAAYPYRGPHTWTIGDYWGQGTQVTVSS
2. QVQLVESGGGLVQAGGSLRLSCAASGSTFRGNAMGWYRQAPGKERELVAAISRRGGSTNYADSVKGRFTISRDNAKNTVYLQMNSLKPEDTAVYYCNKGDYRSAYRHIEYGYWGQGTQVTVSS

Reply |
["low polyreactivity", "low polyreactivity"]

Respectfully, I request polyreactivity (PSR sort gate) for each entry included below.
1. QVQLVESGGGLVQAGGSLRLSCAASGSTFRSYTMGWYRQAPGKERELVADINGTGGSTYYADSVKGRFTISRDNAKNTVYLQMNSLKPEDTAVYYCAADGYFRTVTSGWALRMGYWGQGTQVTVSS
2. QVKLVESGGGLVQAGGSLRLSCAASGFTFDKYAMGWSRPEPGKERELVATISRRGGSTYYADSVKGRFTISRDNAKNTVYLQMNSLKPEDTAVYYCAKVRYYYSPYREFDYCGQGTQVTVSS

Reply |
high polyreactivity
high polyreactivity
